- System: 786-0 renal
- procedure details: NCI tumour cell line growth inhibition, 48 h
measured metric: TGI

Return TGI (reported value) for this compound: COC(=O)C(NC(=O)OC(C)(C)C)P(=O)(OC)OC (stereo unspecified) > 100 µM

***
Return TGI (reported value) for this compound: `FC(F)(F)c1ccc2nc(Sc3ccc4ccccc4c3)cnc2c1` > 100 µM

Return TGI (reported value) for this compound: `COc1ccc(C(=O)c2cc3c(N)c(C(=O)Nc4cccc(OC)c4)sc3nc2C)cc1` > 100 µM

Return TGI (reported value) for this compound: `CN1CCN(c2ccc3nc(-c4ccc(OCCCCN5CCN(CCCCN6C(=O)c7cccc8cccc(c78)C6=O)CC5)cc4)[nH]c3c2)CC1` > 100 µM

Return TGI (reported value) for this compound: COC(=O)/C(=N\Nc1nnc(C)n1N)C(C#N)c1ccccc1 (stereo unspecified) > 55.1 µM

Return TGI (reported value) for this compound: Clc1cc2nnn(C3CCCO3)c2cc1Cl (stereo unspecified) > 100 µM

###

Below, each entry is listed with its recorded TGI.
- Tested on: COLO 205 colon
- procedure details: NCI tumour cell line growth inhibition, 48 h

A selection of reference data follows.
Return TGI (reported value) for this compound: COc1ccc(C)cc1C1CCC(=O)O1 (stereo unspecified) > 100 µM

Return TGI (reported value) for this compound: `CN=C(N)N/N=C(\C)c1ccc2c(c1)Cc1ccccc1-2` 3.02 µM

Return TGI (reported value) for this compound: CC(=O)NC1C(OCc2ccccc2)OC(CO)C(O)C1OCC(=O)N[C@@H](C)C(=O)N[C@H](CCC(=O)NCCCNc1ccc([N+](=O)[O-])c2[nH]c3ccccc3c(=O)c12)C(N)=O (stereo partly specified) > 100 µM

Return TGI (reported value) for this compound: CC(=O)c1c2c(cc3c1CC1(C3)Cc3cc4c(c(C(=O)O)c3C1)CCC4)CCC2 (stereo unspecified) 68.1 µM

Return TGI (reported value) for this compound: COc1ccc(-n2cnc3c(NC(Cc4ccccc4)C(=O)O)ncnc32)cc1 (stereo unspecified) > 100 µM

Here is another compound to look at.
Return TGI (reported value) for this compound: `O=C(Cc1ccccc1)NN1C(=O)/C(=C\c2ccccc2O)SC1=Nc1ccccc1` > 100 µM

###

Below, each entry is listed with its recorded TGI.
- Tested on: SR leukemia
- procedure details: NCI tumour cell line growth inhibition, 48 h

Return TGI (reported value) for this molecule: `Cc1c(Cl)cccc1NC(=O)c1sc2nc3c(cc2c1N)CCCC3` > 100 µM

Return TGI (reported value) for this molecule: `CCOC(=O)c1cc(Br)c(-c2cc(C)co2)[nH]1` > 100 µM

Return TGI (reported value) for this molecule: `COc1cc(-c2cc(=O)c3c(O)c(OC)c(OC)c(OC)c3o2)cc(OC)c1OC` > 100 µM

Here is another molecule to look at.
Return TGI (reported value) for this molecule: `COc1cc(Cn2c(-c3ccccc3)cc3c2-c2oncc2CC3)cc(OC)c1` > 40.7 µM

###

- Test system: HOP-92 NSCLC
- procedure details: NCI tumour cell line growth inhibition, 48 h
Below, each entry is listed with its recorded TGI.

A selection of reference data follows.
Return TGI (reported value) for this compound: `Cc1c(Cl)cccc1NC(=O)c1sc2nc3c(cc2c1N)CCCC3` > 100 µM

Return TGI (reported value) for this compound: `CN(C)CN(C)c1nc(N(C)C)nc(N(C)CN(C)C)n1` > 100 µM

Return TGI (reported value) for this compound: CC(=O)NC1C(OCc2ccccc2)OC(CO)C(O)C1OCC(=O)N[C@@H](C)C(=O)N[C@H](CCC(=O)NCCCNc1ccc([N+](=O)[O-])c2[nH]c3ccccc3c(=O)c12)C(N)=O (some centres undefined) > 100 µM

Return TGI (reported value) for this compound: `Cc1cc(Nc2nc(-c3ccncc3)nc3ccccc23)n[nH]1` > 100 µM

***
Return TGI (reported value) for this compound: COC(=O)C1c2cc3c(c(O)c2C(O)CC1(C)O)C(=O)c1c(O)cc2c(c1C3=O)OC1OC2(C)C(O)C(N(C)C)C1O (centres undefined) > 76.6 µM

Return TGI (reported value) for this compound: `O=C(Nc1ccc(Cl)cc1)c1cc(S(=O)(=O)Nc2n[nH]c(=O)n2-c2ccccc2)c(S)cc1Cl` > 100 µM

Return TGI (reported value) for this compound: `COc1ccc(CNc2nc3ccccc3nc2C(=O)O)cc1` > 100 µM

Return TGI (reported value) for this compound: `O=S(=O)(O)c1ccc2c(N=Nc3ccc(Sc4ccc(N=Nc5c(O)ccc6cc(S(=O)(=O)O)ccc56)cc4)cc3)c(O)ccc2c1` > 100 µM

Return TGI (reported value) for this compound: `O=P(O)(O)CN1CCNCCN(CP(=O)(O)O)CC1` > 100 µM

###

- Test system: SNB-19 CNS
- procedure details: NCI tumour cell line growth inhibition, 48 h
Below, each entry is listed with its recorded TGI.
Numeric only. Scale: µM

Under SNB-19 CNS: report TGI of `CN=C(N)N/N=C(\C)c1ccc2c(c1)Cc1ccccc1-2` . 21.8

Here is another molecule to look at.
Under SNB-19 CNS: report TGI of `c1ccc(-c2ccnc3c2ccc2c(-c4ccccc4)ccnc23)cc1` . 13.9

###

- Test system: HT29 colon
- procedure details: NCI tumour cell line growth inhibition, 48 h
Below, each entry is listed with its recorded TGI.

Return TGI (reported value) for this compound: `Cc1c(O)c(=O)ccn1CCc1ccc(O)cc1` > 100 µM

***
Return TGI (reported value) for this compound: `CCOC(=O)c1cc(Br)c(-c2cc(C)co2)[nH]1` > 100 µM

Return TGI (reported value) for this compound: `O=S(=O)(O)c1ccc2c(N=Nc3ccc(Sc4ccc(N=Nc5c(O)ccc6cc(S(=O)(=O)O)ccc56)cc4)cc3)c(O)ccc2c1` > 100 µM

Return TGI (reported value) for this compound: `CCn1c2ccccc2c2cc(Nc3cc(C)[nH]c(=O)n3)ccc21` > 100 µM

Return TGI (reported value) for this compound: `CN1CCC2(CC1)C(=NC1CCCCC1)NC(=O)N2c1ccccc1` > 100 µM

Return TGI (reported value) for this compound: COC(=O)C(NC(=O)OC(C)(C)C)P(=O)(OC)OC (stereo not given) > 100 µM

Return TGI (reported value) for this compound: `Nc1cc2c3c(cccc3c1)C(=O)N(c1ccc(OCCN3CCCC3)cc1)C2=O` 29.8 µM

Return TGI (reported value) for this compound: `COc1cc2c(cc1OCCCOc1ccc(-c3nc4ccc(N5CCN(C)CC5)cc4[nH]3)cc1)N=C[C@@H]1CCCN1C2=O` > 100 µM

Return TGI (reported value) for this compound: `Cc1ccc(NC(=O)CC(=O)n2nc(C)c(N=Nc3cccc(C)c3)c2C)cc1` > 100 µM

Return TGI (reported value) for this compound: `O=[N+]([O-])/C(C(Cl)=C(Cl)Cl)=C(/Nc1ccccc1)Sc1ccccc1` 48.7 µM

###

- Test system: UACC-257 melanoma
- procedure details: NCI tumour cell line growth inhibition, 48 h
measured metric: TGI

A selection of reference data follows.
Under UACC-257 melanoma: report TGI of `CCN(CC)Cc1cc(Nc2c3ccccc3nc3cc(Cl)ccc23)ccc1O` . 3.41 µM

Under UACC-257 melanoma: report TGI of `Cc1c(O)c(=O)ccn1CCc1ccc(O)cc1` . 54.8 µM

Under UACC-257 melanoma: report TGI of `COC(=O)c1ccc(NCC2=C(Br)C(=O)C=CC2=O)cc1Cl` . 72.2 µM

Under UACC-257 melanoma: report TGI of `N#C/C(=C\c1ccc2[nH]ccc2c1)C(=O)c1ccc(O)c(O)c1` . > 100 µM

Under UACC-257 melanoma: report TGI of CC(N1CCOCC1)C(O)(c1ccccc1)c1ccccn1 (stereo not drawn) . > 100 µM

***
Under UACC-257 melanoma: report TGI of CC1(C)CC(=O)C2=C(C1)OC1(CC2c2ccc(Cl)cc2)CC(c2ccc(Cl)cc2)C2=C(CC(C)(C)CC2=O)O1 (stereo not drawn) . > 61.7 µM

Under UACC-257 melanoma: report TGI of `O=C(O)c1ccc(N/C(=C(/C(Cl)=C(Cl)Cl)[N+](=O)[O-])n2nnc3ccccc32)cc1` . > 100 µM

Under UACC-257 melanoma: report TGI of `O=C1C(c2c(O)[nH]c3ccc(S(=O)(=O)NCCO)cc23)=Nc2ccccc21` . > 100 µM

Under UACC-257 melanoma: report TGI of CCCCC[C@H]1CCCCCCCCCC(=O)OC2C(O[C@@H]3OC(C)[C@H](OC(=O)[C@@H](C)CC)C(O[C@@H]4OC(C)[C@H](O)C(O)[C@@H]4O)[C@@H]3OC(=O)[C@H](C)CC)[C@H](OC3C(O)[C@@H](O)C(C)O[C@H]3O1)OC(CO)[C@H]2O (stereo partly drawn) . 29.2 µM

Under UACC-257 melanoma: report TGI of `Cc1ccc(S[C@@H](C)[C@@](O)(C(N)=O)c2ccccc2)cc1` . > 100 µM

Under UACC-257 melanoma: report TGI of `COc1cc(-c2cc(=O)c3c(O)c(OC)c(OC)c(OC)c3o2)cc(OC)c1OC` . > 100 µM

Under UACC-257 melanoma: report TGI of NNC(=O)C(O)C(O)C(=O)NN (stereo not drawn) . > 100 µM

Under UACC-257 melanoma: report TGI of CCOc1cc2c(cc1O)C(N)C[C@@H]1[C@@H]2CC[C@]2(C)[C@@H](O)CC[C@@H]12 (stereo partly drawn) . > 100 µM

Under UACC-257 melanoma: report TGI of `Nc1cc2c3c(cccc3c1)C(=O)N(c1ccc(OCCN3CCCC3)cc1)C2=O` . 31.5 µM
